B1: 2K2A (parent)
chain: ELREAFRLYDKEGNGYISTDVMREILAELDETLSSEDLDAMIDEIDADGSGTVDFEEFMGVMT

- Variants of: B1
- assay_text: folding stability dG (cDNA display proteolysis); higher = more stable
- condition_info: PBS, room temperature
Hi there, I'd appreciate the recorded folding stability dG for every entry that follows.

Exercise: Quote folding stability dG reported for E36R please.
Key: 1.82 kcal/mol

Exercise: Quote folding stability dG reported for D37F please.
Key: 1.22 kcal/mol

Exercise: Quote folding stability dG reported for I42K please.
Key: -0.287 kcal/mol

Exercise: Quote folding stability dG reported for I17V please.
Key: 1.22 kcal/mol

Exercise: Quote folding stability dG reported for A40M please.
Key: 1.76 kcal/mol

Exercise: Quote folding stability dG reported for L8R please.
Key: 2.38 kcal/mol

Exercise: Quote folding stability dG reported for V61G please.
Key: 1.49 kcal/mol

Exercise: Quote folding stability dG reported for D46F please.
Key: 0.726 kcal/mol

Exercise: Quote folding stability dG reported for D43K please.
Key: 2.26 kcal/mol

Exercise: Quote folding stability dG reported for F58T please.
Key: -0.411 kcal/mol

Exercise: Quote folding stability dG reported for N14L please.
Key: 2.17 kcal/mol

Exercise: Quote folding stability dG reported for G60P please.
Key: 0.712 kcal/mol

Exercise: Quote folding stability dG reported for L38T please.
Key: 0.114 kcal/mol

Exercise: Quote folding stability dG reported for G13F please.
Key: 0.932 kcal/mol

Exercise: Quote folding stability dG reported for N14W please.
Key: 1.38 kcal/mol

Exercise: Quote folding stability dG reported for V53L please.
Key: 1.58 kcal/mol

Exercise: Quote folding stability dG reported for A27W please.
Key: 1.73 kcal/mol

Exercise: Quote folding stability dG reported for R7A please.
Key: 2.09 kcal/mol

Exercise: Quote folding stability dG reported for I25H please.
Key: -0.033 kcal/mol

Exercise: Quote folding stability dG reported for L2K please.
Key: 0.383 kcal/mol

Exercise: Quote folding stability dG reported for T63N please.
Key: 1.82 kcal/mol

Exercise: Quote folding stability dG reported for T52W please.
Key: 1.31 kcal/mol
